// endpoint IC50 / system JAK3 (Homo sapiens (Human), UniProt P52333)
Outcome measure: IC50 (µM)

[[record]]
compound = "N#CCN1CC2(CCC(c3cccc4nc(NC(=O)[C@H]5CC5(F)F)nn34)CC2)C1"
outcome_measure = "IC50"
units = "µM"
bound_type = ">"
result_number = 10

[[record]]
compound = "O=C(Nc1nc2cccc(C3CCC4(CC3)CCN(C(=O)[C@@H]3CC3(F)F)C4)n2n1)C1CC1 (stereo partly shown) [Compound 5-7]"
outcome_measure = "IC50"
units = "µM"
bound_type = "="
result_number = 5.76

[[record]]
compound = "O=C(Nc1nc2cccc(C3CCC4(CC3)CN(C(=O)[C@@H]3CC3(F)F)C4)n2n1)[C@@H]1CC1(F)F"
outcome_measure = "IC50"
units = "µM"
bound_type = ">"
result_number = 10

[[record]]
compound = "CC(C)(C#N)C(=O)N1CC2(CCC(c3cccc4nc(NC(=O)C5CC5)nn34)CC2)C1"
outcome_measure = "IC50"
units = "µM"
bound_type = "="
result_number = 9.67

[[record]]
compound = "O=C(Nc1nc2cccc(C3CCC4(CC3)CCN(C(=O)[C@@H]3CC3(F)F)C4)n2n1)C1CC1 (stereo partly shown) [Compound 5-8]"
outcome_measure = "IC50"
units = "µM"
bound_type = "="
result_number = 7.35

[[record]]
compound = "N#CCN1CC2(CCC(c3cccc4nc(NC(=O)[C@@H]5CC5(F)F)nn34)CC2)C1"
outcome_measure = "IC50"
units = "µM"
bound_type = ">"
result_number = 10

[[record]]
compound = "O=C(Nc1nc2cccc(C3CCC4(CC3)CN(C(=O)[C@@H]3CC3(F)F)C4)n2n1)[C@H]1CC1(F)F"
outcome_measure = "IC50"
units = "µM"
bound_type = "="
result_number = 7.64

